Tested on: Lipase from Candida antarctica (Type A)
Assay: Enantioselective acylation of R,S-1-phenyl ethanol in ionic liquids; also: key: (+) good to better; (±) the same
Assay type: biochemical
VALUE TYPE: Conversion compared to the standard reaction in tert-butylmethyl ether

A selection of reference data follows.
CCCCCCn1cc[n+](C)c1.F[B-](F)(F)F ... +
CCCCCCCCn1cc[n+](C)c1.F[B-](F)(F)F ... +
CCCCn1cc[n+](C)c1.F[P-](F)(F)(F)(F)F ... +
CCCCCCCCC[n+]1ccn(C)c1.F[P-](F)(F)(F)(F)F ... +
CCCCn1cc[n+](C)c1.F[B-](F)(F)F ... ±

Now turn to the next compound.
Look up and state reported Conversion compared to the standard reaction in tert-butylmethyl ether for "CCCCn1cc[n+](C)c1.O=S(=O)([O-])C(F)(F)F"
+
